The measurements presented in this section are drawn from paper PMC8154566.

RUN_DESCRIPTION: in vivo
Assay type: in vivo
RECORDED_CONDITIONS: female, NMRI, in vivo; po PK 10 mg/kg, mouse
OUTCOME_MEASURE: AUC at 24 h (ng·h/mL)
Give the value, in units of ng·h/mL, as a plain number.

Can you share its AUC at 24 h? I mean this compound: `O=C(Nc1ccc(F)c(-c2cn3cc(N4CCOCC4)cnc3n2)c1)N1CCCC1`
4300

###

RUN_DESCRIPTION: Mouse liver microsomal intrinsic clearance
Type: in vitro ADME
RECORDED_CONDITIONS: supplementary csv; mouse
For each entry below, report its Cli (mouse, ml/min/g) value.
Give the value, in units of mL/min/g, as a plain number.

Can you share its Cli (mouse, ml/min/g)? I mean this molecule: `O=C(Nc1ccc(F)c(-c2cn3nc(N4CCOCC4)cnc3n2)c1)N1CCCC1`
0.9

Another: `C[C@@H]1CN(c2cnc3nc(-c4cc(NC(=O)N5CCCC5)ccc4F)ccn23)C[C@H](C)O1`
3.4

Another: `O=C1CN(c2cnc3nc(-c4cc(NC(=O)N5CCCC5)ccc4F)ccn23)CCN1`
1.1

Another: `O=C(Nc1cccc(-c2cc3ncc(-c4ccccc4)cn3n2)c1)N1CCCC1`
3.6

###

RUN_DESCRIPTION: FaSSIF (fasted state simulated intestinal fluid) solubility
Type: physicochemical
RECORDED_CONDITIONS: pH 6.5, Table 6
OUTCOME_MEASURE: solubility at 4 h (µM)
Give the value, in units of µM, as a plain number.

Can you share its solubility at 4 h? I mean this molecule: CC1(C)COCCN1c1cnc2nc(-c3cc(NC(=O)N4CCCC4)ccc3F)ccn12 [Compound 43]
627

Another: O=C(Nc1ccc(F)c(-c2ccn3c(N4CCC5(CCOC5)C4)cnc3n2)c1)N1CCCC1 (stereo not shown) [Compound 44]
852

Another: O=C(Nc1ccc(F)c(-c2ccn3c(N4CCCCC4)cnc3n2)c1)N1CCCC1 [Compound 34]
32

Another: CN1CCOCC1c1cnc2nc(-c3cc(NC(=O)N4CCCC4)ccc3F)ccn12 (stereo not shown) [Compound 33]
2340

###

RUN_DESCRIPTION: FaSSIF (fasted state simulated intestinal fluid) solubility
Assay type: physicochemical
RECORDED_CONDITIONS: supplementary csv
# binarize solubility: threshold 200 µM inclusive, high side Met, low side Not met

Say whether `COc1ccc(-c2cn3cc(N4CCOCC4)cnc3n2)cc1NC(=O)N1CCCC1` shows solubility of 200 µM or more.
Met

Another: CN1CCOCC1c1cnc2nc(-c3cc(NC(=O)N4CCCC4)ccc3F)ccn12 (centres unmarked)
Met

Another: `O=C(Nc1ccc(F)c(-c2ccn3c(-c4ccccc4)cnc3n2)c1)N1CCCC1`
Not met

Another: `CC(C)Cc1cnc2nc(-c3cc(NC(=O)N4CCCC4)ccc3F)ccn12`
Not met

Another: `CC1(C)CN(c2cnc3nc(-c4cc(NC(=O)N5CCCC5)ccc4F)ccn23)CCO1`
Met

Another: `O=C(Nc1cnnc(-c2cn3cc(N4CCOCC4)cnc3n2)c1)N1CCCC1`
Met

Another: `O=C(Nc1ccc(F)c(-c2cn3nc(N4CCOCC4)cnc3n2)c1)N1CCCC1`
Not met

Another: `O=C(Nc1cncc(-c2cn3cc(N4CCOCC4)cnc3n2)n1)N1CCCC1`
Met

Another: `O=C(Nc1ccc(F)c(-c2ccn3c(CN4CCOCC4)cnc3n2)c1)N1CCCC1`
Met

Another: `O=C(Nc1ccc(F)c(-c2nc3ncc(N4CCOCC4)cn3n2)c1)N1CCCC1`
Not met

Another: `O=C1CN(c2cnc3nc(-c4cc(NC(=O)N5CCCC5)ccc4F)ccn23)CCN1`
Met

Another: `O=C(Nc1cccc(-c2cn3cc(N4CCOCC4)cnc3n2)n1)N1CCCC1`
Not met

Another: `O=C(Nc1cc(-c2cn3cc(N4CCOCC4)cnc3n2)ncn1)N1CCCC1`
Met

Another: `CC(=O)N1CCN(c2cnc3nc(-c4cc(NC(=O)N5CCCC5)ccc4F)ccn23)CC1`
Met

Another: CC1CN(c2cnc3nc(-c4cc(NC(=O)N5CCCC5)ccc4F)ccn23)CCO1 (centres unmarked)
Met

Another: `CC1(C)COCCN1c1cnc2nc(-c3cc(NC(=O)N4CCCC4)ccc3F)ccn12`
Met

Another: `O=C(Nc1ccc(F)c(-c2ccn3c(-c4ccccn4)cnc3n2)c1)N1CCCC1`
Met
